Test system: COLO 205
experimentNotes: NCI tumour cell line growth inhibition, 48 h
Activity calls are given as the source filed them. No stated cut-off is given here; in the data, active = GI50 up to about 1.1 µM and inactive = higher.
// allowed return values: active, inactive

Query :: Assay outcome for CSc1ccc(C(=C=C=C(c2ccc(SC)s2)c2ccc(SC)s2)c2ccc(SC)s2)s1 : what was it?
Result :: inactive

Query :: Could you check what this test reported for Cc1c2c(n(CCc3ccccc3)c1C)NN=C(C#N)S2(=O)=O ?
Result :: inactive

Query :: Which outcome did this test record for the compound NC(=O)N/N=C(\CCC(=O)N(Cc1ccccc1)Cc1ccccc1)CC(=O)c1ccc(F)cc1 ?
Result :: inactive

Query :: Which outcome did this test record for the compound CCOC(=O)/C(Br)=C1\OC(=O)c2ccccc2-c2ccccc21 ?
Result :: inactive

Query :: GET /call?item= N#Cc1c(C[n+]2ccccc2)c2ccccc2oc1=O returns the recorded outcome of this test.
Result :: inactive

Query :: Query: recorded result category for Cc1nn2c(nc1=O)sc1ccc3ccccc3c12 in this test
Result :: inactive

Query :: Answer briefly: the call reported for O=CCCCC(Sc1ccccc1)Sc1ccccc1 in this assay.
Result :: inactive

Query :: Which result was noted for this compound in the test: CC1(C)OC(=O)C(=C2CCC(C(=O)Nc3cccc(C(F)(F)F)c3)N2)C(=O)O1 (stereo not drawn)
Result :: inactive

Query :: Tell me the assay call for CC(=O)OCC1OC(n2cnc(C(N)=S)c2N)C(OC(C)=O)C1OC(C)=O (stereo not drawn) please.
Result :: inactive

Query :: Recorded test outcome, item NC(=O)N(O)c1cccc(Br)c1
Result :: inactive

Query :: So what was the verdict on CC(=O)CC(=O)N1CCOC1=O in this test?
Result :: inactive

Query :: Look up the recorded call for S=C(Nc1ccccn1)Nc1ccccc1Cl in this test.
Result :: inactive

Query :: Outcome? COc1c(-c2nc3ccc(N4CCN(C)CC4)nc3[nH]2)cc(OC)c2c1nc(COC(C)=O)n2C
Result :: inactive

Query :: // outcome(item) with item = Clc1ccc(-c2nnc(-c3c(Cl)c(Cl)c(Cl)c(Cl)c3-c3nc4ccccc4[nH]3)o2)cc1
Result :: inactive

Query :: What classification did O=C1CC(c2cccc([N+](=O)[O-])c2)C2(C(=O)NC(=O)NC2=O)C(c2cccc([N+](=O)[O-])c2)C1 (stereo not drawn) end up with in this test?
Result :: inactive

Query :: Which outcome did this test record for the compound Cc1ccc(S(=O)(=O)Nn2c(O)c(C#N)c(-c3ccc(N(C)C)cc3)c(C#N)c2=O)cc1 ?
Result :: inactive

Query :: # outcome recorded in this test, key = CC1(C)Cc2nnsc2C2=C1C(=O)CCS2
Result :: inactive

Query :: What is the recorded call for this compound in the test? CC1=C(C(=O)CC(=O)C(=O)Nc2ccccc2C)Sc2ccccc2N1
Result :: inactive

Query :: Hello, I am checking results. What call was entered for CSc1nc(=O)c2nc(-c3cccs3)c(-c3cccs3)nc2n1C ?
Result :: inactive

Query :: How did this test come out for C=CCCCC12CCCc3cccc(c31)NC2=O (stereo not drawn) ?
Result :: inactive

Query :: Query: recorded result category for CC1CNC(c2ccc(CN3CCC(C4CCN(Cc5ccc(C6=NC(C)CN6)cc5)CC4)CC3)cc2)=N1 (stereo not drawn) in this test
Result :: inactive

Query :: Recorded test outcome, item C=CCSC1=N/C(=C\c2ccccc2)C(=O)N1CC=C
Result :: inactive

Query :: # outcome recorded in this test, key = CC(C)OC(=O)C(NC(=O)C(CC(=O)OCc1ccccc1)NC(=O)OCc1ccccc1)NC(=O)C1C(C)(C)CCC1(C)C (stereo not drawn)
Result :: inactive

Query :: What call does the record list for COC(=O)C(C(=O)c1ccccc1)C(C(=O)C(=O)Nc1ccc(OC)cc1OC)C(=O)C(=O)c1ccc(C)cc1 (stereo not drawn) ?
Result :: inactive

Query :: Identify the outcome logged in this assay for the compound shown: O=P(c1ccccc1)(c1ccccc1)C1CC=C2CCCCCC2C1 (stereo not drawn)
Result :: inactive

Query :: Answer briefly: the call reported for Cc1ccc(O)c(-c2cc(-c3cccc(Cl)c3)c(C#N)c(N)n2)c1 in this assay.
Result :: inactive

Query :: What call does the record list for COc1ccc(CCNC(=S)NC=C2C(=O)c3ccccc3C2=O)cc1OC ?
Result :: inactive

Query :: Call for entry CCN(CC)c1ccc(/C=c2\nc(-c3ccccc3)n3c2nc2ccccc23)cc1 :
Result :: inactive

Query :: Could you check what this test reported for O=C(c1ccccc1)c1cc[n+](C2=C([N-]S(=O)(=O)c3ccccc3)C(=O)c3ccccc3C2=O)cc1 ?
Result :: inactive

Query :: How did this test come out for CC1=C(c2nc3ccccc3s2)C(=O)OC1(C)C ?
Result :: inactive

Query :: Can you look up the reported call for COc1ccc(OC)c(C[P+](c2ccccc2)(c2ccccc2)c2ccccc2)c1 for me?
Result :: active

Query :: Please indicate how the test categorized COC(CNC(=O)C(C)NC(=O)CCc1ccccc1)OC (stereo not drawn) .
Result :: inactive

Query :: Fill in: this test's call for O=[N+]([O-])c1ccc(N2C[N+](c3ccccc3)=NC(c3ccccc3)=N2)cc1 is ___
Result :: inactive

Query :: Which outcome was entered for the compound COc1cccc(C2SCC(=O)N2c2ccc(-c3ccc(-n4c(-c5ccccc5)nc5ccccc5c4=O)cc3)cc2)c1OC (stereo not drawn) in this test?
Result :: inactive

Query :: I would be grateful if you could indicate the recorded call for N#Cc1c(O)c(/C=N/c2ncccn2)c(=O)n2c1[nH]c1ccccc12 .
Result :: inactive

Query :: Outcome? CN(NC1=NCCO1)c1ccc2ccccc2c1
Result :: inactive

Query :: Hey, what did the test say about CCCCSC1=N/C(=C\c2ccccc2O)C(=O)N1 ?
Result :: inactive

Query :: What classification did COc1nc(C(Cl)(Cl)Cl)c(Cl)c(O)c1Cl end up with in this test?
Result :: inactive

Query :: Look up the recorded call for Cc1ccc(/N=C2/S/C(=C3/CCC=C3N3CCOCC3)N(c3ccc(Cl)cc3)/C2=N/c2ccc(C)cc2)cc1 in this test.
Result :: inactive

Query :: Would you mind telling me which call this test gave CC(C)C(Nc1ncnc2nc[nH]c12)C(=O)O (stereo not drawn) ?
Result :: inactive

Query :: Field: outcome | Entry: O=C(O)CCSc1nnc(COc2ccc(Cl)cc2)n1-c1ccccc1
Result :: inactive

Query :: Please share the test call associated with CN1C(=O)c2ccccc2NC(=O)c2cnn(C)c21 .
Result :: inactive

Query :: I'd appreciate the recorded outcome for COc1ccc2c(c1)[C@@]13CCCC[C@H]1[C@@H](C2)N(C)CC3=O from this test.
Result :: inactive
